Below is a list of entries, each paired with its recorded MIC value.
Test system: Staphylococcus aureus
Test name: Antimicrobial activity against methicillin-resistant Staphylococcus aureus N315 assessed as bacterial growth inhibition incubated for 24 hrs by Muller Hinton broth based dilution assay
Assay type: functional
I only need the number, in µg/mL, no unit after it.

Completed entries (count: 3):
compound_structure_string=CCCCCCCCCN1CCCc2cc(OCC(=O)N[C@@H](CCCNC(=N)N)C(=O)N[C@@H](CCCNC(=N)N)C(=O)OC)ccc21 endpoint_unit=µg/mL value_reported=1.56
compound_structure_string=CC(C)=CCN1CCCc2cc(O)ccc21 endpoint_unit=µg/mL value_reported=50
compound_structure_string=CCCCCCCN1CCCc2cc(OCCCCBr)ccc21 endpoint_unit=µg/mL value_reported=6.25

Provide the reported MIC (system: Staphylococcus aureus) for CCCNCCCCOc1ccc2c(c1)CCCN2CC=C(C)C
25

Provide the reported MIC (system: Staphylococcus aureus) for CCCCCCCN1CCCc2cc(OCCCCNC(=N)N)ccc21
0.78

* * *

Below is a list of entries, each paired with its recorded log10 of MIC value.
Tested on: Staphylococcus aureus
Test name: Antimicrobial activity against Staphylococcus aureus ATCC29213 assessed as bacterial growth inhibition incubated for 24 hrs by Muller Hinton broth based dilution assay
Assay type: functional
The common logarithm of MIC in µg/mL is what is listed.

compound_structure_string=CC(C)=CCN1CCCc2cc(OCCCCCCCCNC(=N)N)ccc21 value_reported=0.19
compound_structure_string=CCCNCCCCOc1ccc2c(c1)CCCN2CC=C(C)C value_reported=1.70

Now consider a different compound.
Give the reported value of log10 of MIC for this record: CCCCCCCCCN1CCCc2cc(OCCCCCCCCBr)ccc21
1.40

* * *

Tested on: Staphylococcus aureus
Test name: Antimicrobial activity against Staphylococcus aureus ATCC29213 assessed as bacterial growth inhibition incubated for 24 hrs by Muller Hinton broth based dilution assay
Assay type: functional
Measured parameter: log10(MIC) (log10 of the value in µg/mL)
The common logarithm of MIC in µg/mL is what is listed.

compound_structure_string=CCCCCCCN1CCCc2cc(OCC(=O)N[C@@H](CCCNC(=N)N)C(=O)OC)ccc21 measured_parameter=log10(MIC) value_reported=0.49
compound_structure_string=CC(C)=CCN1CCCc2cc(OCCCNC(=N)N)ccc21 measured_parameter=log10(MIC) value_reported=0.80
compound_structure_string=CCCCCCCCCN1CCCc2cc(OCC(=O)N[C@@H](CCCNC(=N)N)C(=O)N[C@@H](CCCNC(=N)N)C(=O)N[C@@H](CCCNC(=N)N)C(=O)OC)ccc21 measured_parameter=log10(MIC) value_reported=0.49
compound_structure_string=CCCN(CCC)CCCCOc1ccc2c(c1)CCCN2CC=C(C)C measured_parameter=log10(MIC) value_reported=1.40
compound_structure_string=CC(C)=CCN1CCCc2cc(OCCCCCCCCCCCCNC(=N)N)ccc21 measured_parameter=log10(MIC) value_reported=0.19

Now consider a different compound.
Give the reported value of log10(MIC) for this record: CC(C)=CCN1CCCc2cc(OCCCCCCBr)ccc21
1.70
